The measurements presented in this section are drawn from patent EP2540163A1.

test: logP by HPLC on reversed-phase column (C 18), EEC Directive 79/831 Annex V.A8, Method A (0.1% aqueous phosphoric acid / acetonitrile, 43°C); assay type: physicochemical; details: c18 reversed-phase hplc; LogP method A: HPLC reversed-phase C 18, 43°C, 0.1% aqueous phosphoric acid / acetonitrile
PROPERTY_MEASURED: chromatographic logP

Cc1nc(C(=O)N(C2CC2)S(=O)(=O)c2ccc(Cl)cc2Cl)cs1
3.03
O=C(c1cc(Br)c(Br)s1)N(C1CC1)S(=O)(=O)c1ccccc1Cl
4.07
Cn1nc(C(F)(F)F)c(C(=O)N(C2CC2)S(=O)(=O)c2ccccc2Cl)c1Cl
3.27
